Task for the reader: assign each of the following compounds its reported MIC.
- System: broad panel of different clinical isolates
- assaySummary: microbe, parasite or virus in culture
- Assay type: cell-based
- particulars: Streptococcus pneumoniae, S. pneumoniae HAV#358; Clinical
Don't forget the unit after the value.

CSC1O[C@H]([C@H](NC(=O)[C@H]2NC[C@@H]3C[C@H](CC(C)C)CCO[C@H]32)[C@H](C)Cl)C(O)[C@@H](O)[C@H]1O (stereo partly drawn) [FSA-513018b]	0.125 µg/mL

State recorded MIC for all listed compounds.
1. C[C@H]1c2cccc(O)c2C(=O)C2=C(O)[C@]3(O)C(=O)C(C(N)=O)=C(O)[C@@H](N(C)C)[C@@H]3[C@@H](O)[C@@H]21
2. CO/N=C(\C(=O)N[C@@H]1C(=O)N2C(C(=O)O)=C(CSc3nc(=O)c(=O)[nH]n3C)CS[C@H]12)c1csc(N)n1

Reply:
1. 0.25 µg/mL
2. 1 µg/mL

###

- assaySummary: Plasma protein binding, species m
- Format: in vitro ADME
- particulars: mouse
metricName: fraction unbound

Query: # query: fraction unbound of entry CSC1O[C@H]([C@H](NC(=O)[C@H]2NC[C@@H]3C[C@H](CC(C)C)CCO[C@H]32)[C@H](C)Cl)C(O)[C@@H](O)[C@H]1O (stereo partly shown) [FSA-513018b]
Reply: 0.05

###

- assaySummary: Plasma protein binding, species h
- Assay type: in vitro ADME
- particulars: human
metricName: fraction unbound

Query: Item CSC1O[C@H]([C@H](NC(=O)[C@H]2NC[C@@H]3C[C@H](CC(C)C)CCO[C@H]32)[C@H](C)Cl)C(O)[C@@H](O)[C@H]1O (stereo partly shown) [FSA-513018b] has what recorded fraction unbound?
Reply: 0.08

###

Please provide measured MIC for the entries that follow.
- Tested on: E. faecalis MMX 847; cErmB
- assaySummary: MIC (broth microdilution or agar dilution, CLSI)
- Assay type: cell-based
- particulars: Enterococcus faecalis; E. faecalis HAV#036, MMX 847; mac-resistant, cErmB; read-out: MIC

Worked examples, 5 molecules total:
CC[C@H]1OC(=O)[C@H](C)[C@@H](O[C@H]2C[C@@](C)(OC)[C@@H](O)[C@H](C)O2)[C@H](C)[C@@H](O[C@@H]2O[C@H](C)C[C@H](N(C)C)[C@H]2O)[C@](C)(O)C[C@@H](C)CN(C)[C@H](C)[C@@H](O)[C@]1(C)O	> 64 µg/mL
Cc1onc(-c2ccccc2)c1C(=O)N[C@@H]1C(=O)N2[C@@H]1SC(C)(C)[C@@H]2C(=O)O	64 µg/mL
CC(=O)NC[C@H]1CN(c2ccc(N3CCOCC3)c(F)c2)C(=O)O1	2 µg/mL
CC[C@H]1OC(=O)[C@H](C)[C@@H](O[C@H]2C[C@@](C)(OC)[C@@H](O)[C@H](C)O2)[C@H](C)[C@@H](O[C@@H]2O[C@H](C)C[C@H](N(C)C)[C@H]2O)[C@](C)(O)C[C@@H](C)C(=O)[C@H](C)[C@@H](O)[C@]1(C)O	> 64 µg/mL
C[C@H]1COc2c(N3CCN(C)CC3)c(F)cc3c(=O)c(C(=O)O)cn1c23	> 64 µg/mL

Consider now this further molecule.
Query: Which MIC is reported with E. faecalis MMX 847; cErmB for this entry: `C[C@H]1c2cccc(O)c2C(=O)C2=C(O)[C@]3(O)C(=O)C(C(N)=O)=C(O)[C@@H](N(C)C)[C@@H]3[C@@H](O)[C@@H]21` ?
Reply: 16 µg/mL

###

- Tested on: broad panel of different clinical isolates
- assaySummary: microbe, parasite or virus in culture
- Assay type: cell-based
- particulars: Enterococcus faecalis, S. faecalis 5074, Line R
Answer each item with its documented MIC.
Numbers only, in µg/mL.

C[C@H]1COc2c(N3CCN(C)CC3)c(F)cc3c(=O)c(C(=O)O)cn1c23	8
CCC[C@@H]1C[C@@H](C(=O)N[C@@H]([C@H]2O[C@H](SC)[C@H](O)[C@@H](O)[C@H]2O)[C@H](C)Cl)N(C)C1 [Clindamycin, clindamycin, reference compound]	8
C[C@H]1c2cccc(O)c2C(=O)C2=C(O)[C@]3(O)C(=O)C(C(N)=O)=C(O)[C@@H](N(C)C)[C@@H]3[C@@H](O)[C@@H]21	64
CC(=O)NC[C@H]1CN(c2ccc(N3CCOCC3)c(F)c2)C(=O)O1	8
CN[C@H](CC(C)C)C(=O)N[C@H]1C(=O)N[C@@H](CC(N)=O)C(=O)N[C@H]2C(=O)N[C@H]3C(=O)N[C@H](C(=O)N[C@H](C(=O)O)c4cc(O)cc(O)c4-c4cc3ccc4O)[C@H](O)c3ccc(c(Cl)c3)Oc3cc2cc(c3O[C@@H]2O[C@H](CO)[C@@H](O)[C@H](O)[C@H]2O[C@H]2C[C@](C)(N)[C@H](O)[C@H](C)O2)Oc2ccc(cc2Cl)[C@H]1O	2

Next molecule, MIC to be filled in.
Query: Endpoint output: MIC of `CC[C@H]1OC(=O)[C@H](C)[C@@H](O[C@H]2C[C@@](C)(OC)[C@@H](O)[C@H](C)O2)[C@H](C)[C@@H](O[C@@H]2O[C@H](C)C[C@H](N(C)C)[C@H]2O)[C@](C)(O)C[C@@H](C)CN(C)[C@H](C)[C@@H](O)[C@]1(C)O` . Value?
Reply: 4

###

- System: E. faecalis ATCC 29212
- assaySummary: MIC (broth microdilution or agar dilution, CLSI)
- Assay type: cell-based
- particulars: Enterococcus faecalis, ATCC29212, E. faecalis ATCC 29212; read-out: MIC
metricName: MIC (µg/mL)
One number for each entry, in µg/mL.

The following compounds have reported results that may help.
CS[C@H]1O[C@H]([C@H](NC(=O)[C@H]2NC[C@@H]3C[C@H](CC(C)C)CCO[C@H]32)[C@H](C)Sc2ccc(-c3cccnc3)cc2)[C@H](O)[C@H](O)[C@H]1O	0.5
CSC1O[C@H]([C@H](NC(=O)[C@@H]2[C@@H]3OCC[C@H](CC(C)(C)C)C[C@H]3CN2C)[C@H](C)Cl)CC(O)[C@H]1O (some centres unmarked) [FSA-513004a]	1
CSC1O[C@H]([C@H](NC(=O)[C@@H]2[C@@H]3OCC[C@@H](C4CCCC4)C[C@H]3CN2C)[C@H](C)Cl)CC(O)[C@H]1O (some centres unmarked) [FSA-513001b]	0.12
CS[C@H]1O[C@H]([C@H](NC(=O)[C@H]2NC[C@@H]3C[C@H](CC(C)C)CCO[C@H]32)[C@H](C)Sc2ccc(CN(C)C)cc2)[C@H](O)[C@H](O)[C@H]1O	0.25

Record MIC per entry; entries follow.
1. CSC1O[C@H]([C@H](NC(=O)[C@@H]2[C@@H]3OCC[C@@H](C4CCCCC4)C[C@H]3CN2C)[C@H](C)Cl)CC(O)[C@H]1O (some centres unmarked) [FSA-513002b]
2. CSC1O[C@H]([C@H](NC(=O)[C@H]2NC[C@@H]3C[C@H](CCCCl)CCO[C@H]32)[C@H](C)Cl)C(O)C(O)[C@H]1O (some centres unmarked)
3. CS[C@H]1O[C@H]([C@H](NC(=O)[C@H]2NC[C@@H]3C[C@H](CC(C)C)CCO[C@H]32)[C@H](C)Sc2ccc(CCN(C)C)cc2)[C@H](O)[C@H](O)[C@H]1O
4. CS[C@H]1O[C@H]([C@H](NC(=O)[C@H]2NC[C@@H]3C[C@H](CC(C)C)CCO[C@H]32)[C@H](C)Sc2ccc(CO)cc2)[C@H](O)[C@H](O)[C@H]1O
5. C=C[C@@H]1CCO[C@@H]2[C@H](CN[C@@H]2C(=O)N[C@H]([C@H](C)Cl)[C@H]2OC(SC)[C@H](O)[C@H](O)C2O)C1 (some centres unmarked)

Reply:
1: 0.5; 2: 0.125; 3: 0.5; 4: 1; 5: 2

###

- Test system: S. aureus ATCC 29213
- assaySummary: MIC (broth microdilution or agar dilution, CLSI)
- Assay type: cell-based
- particulars: Staphylococcus aureus, ATCC29213, S. aureus HAV#001, ATCC 29213, MP-549; read-out: MIC
- Protocol: Minimum inhibitory concentrations (MICs) were determined by broth microdilution method or agar dilution method following the Clinical and Laboratory Standards Institute guidelines. Standard bacterial strains were obtained from American Type Culture Collection (ATCC). Other bacterial strains were obtained from hospitals and commercial sources, so noted in Table 11. […] Specialized procedures were employed for streptococcal and anaerobic strains. […]
// classify: if (MIC < 2 µg/mL) Satisfied else Not satisfied

Query: Consider the compound `O=C(N[C@H](CO)[C@H](O)c1ccc([N+](=O)[O-])cc1)C(Cl)Cl` . Is its MIC strictly less than 2 µg/mL?
Reply: Not satisfied

Query: Report whether reported MIC is lower than 2 µg/mL (strictly) for `CC[C@H]1OC(=O)[C@H](C)[C@@H](O[C@H]2C[C@@](C)(OC)[C@@H](O)[C@H](C)O2)[C@H](C)[C@@H](O[C@@H]2O[C@H](C)C[C@H](N(C)C)[C@H]2O)[C@](C)(O)C[C@@H](C)CN(C)[C@H](C)[C@@H](O)[C@]1(C)O`
Reply: Satisfied

Query: Quick check: does `CS(=O)(=O)c1ccc([C@@H](O)[C@@H](CO)NC(=O)C(Cl)Cl)cc1` have MIC under 2 µg/mL?
Reply: Not satisfied

Query: Take the compound `CCN1CCN(c2cc3c(cc2F)c(=O)c(C(=O)O)cn3C2CC2)CC1` and say whether its MIC is less than 2 µg/mL.
Reply: Satisfied

Query: Is 2 µg/mL strictly greater than the compound's reported MIC? compound: `C[C@H]1c2cccc(O)c2C(=O)C2=C(O)[C@]3(O)C(=O)C(C(N)=O)=C(O)[C@@H](N(C)C)[C@@H]3[C@@H](O)[C@@H]21`
Reply: Satisfied

Query: Is MIC strictly under 2 µg/mL for the entry `CN(C)c1ccc(O)c2c1C[C@H]1C[C@H]3[C@H](N(C)C)C(O)=C(C(N)=O)C(=O)[C@@]3(O)C(O)=C1C2=O` ?
Reply: Satisfied
